These data points were gathered from the NIST ThermoML archive (doi:10.1021/acs.jced.5b00447).

Conditions: 298.15 K, wilhelmi plate
Measured Property: surface tension liquid-gas (mN/m)
Number only, in mN/m; omit the unit.

INSERT INTO assay_data (structure_smiles, measured_property, recorded_result) VALUES
  ('O', 'surface tension liquid-gas', 72.1),
  ('CN(C)CCO', 'surface tension liquid-gas', 31.3);

For the compound "CN(C)CCN" , what surface tension liquid-gas is on record?
26.1

For the compound "NCCO" , what surface tension liquid-gas is on record?
49.1

###

Below is a list of entries, each paired with its recorded viscosity value.
Details: 298.15 K; 100 kPa; Liquid; Capillary tube (Ostwald / Ubbelohde) method
Number only, in mPa·s; omit the unit.

// worked examples, viscosity included
INSERT INTO measurements (structure_smiles, measured_property, measurement_units, recorded_result) VALUES
  ('CN(C)CCO', 'viscosity', 'mPa·s', 3.69),
  ('NCCO', 'viscosity', 'mPa·s', 18.74),
  ('O', 'viscosity', 'mPa·s', 0.891);

Turning now to a further compound:
For the compound "CN(C)CCN" , what viscosity is on record?
0.895
